- PROTOCOL: Kinetic solubility in PBS pH 7.4, HPLC-UV (Example 21, Table 27)
- Assay type: physicochemical
- CONDITION_SET: phosphate buffered saline, aqueous buffer, kinetic from dmso stock, 0.5 M PBS, shaken minimum 24 h at approximately 25° C., HPLC-UV 270 nm
Each entry below lists one item and its recorded solubility kinetic value.

Please review the entries below; each comes with its answer.
MOLECULE: CCCCCOc1cc(N2CCCN(Cc3ccnc4c3c(Cl)cn4CCN3CCCS3(=O)=O)C2=O)ccc1OC
solubility kinetic: 13 µM

MOLECULE: CCCCCOc1cc(N2CCCN(Cc3ccnc4c3c(Cl)cn4CC(=O)N(C)CCC#N)C2=O)ccc1OC
solubility kinetic: 50 µM

MOLECULE: COc1cc(CC(=O)N(C)C)ccc1CN1CCCN(c2ccc(OC)c(OCC[C@@H]3C[C@@H]4CC[C@H]3C4)c2)C1=O
solubility kinetic: 17 µM

MOLECULE: CCCCCOc1cc(N2CCCN(Cc3cccc4c3c(F)cn4CC(=O)N(C)C)C2=O)ccc1OC
solubility kinetic: < 10 µM

MOLECULE: CCCCCOc1cc(N2CCCN(Cc3cccc4c3ccn4CC(=O)NC3(C)COC3)C2=O)ccc1OC
solubility kinetic: 142 µM

Given the molecule `COc1cc(CC(=O)N[C@H]2CCNC2)ccc1CN1C(=O)N(c2ccc(OC)c(OCCCC3CC3)c2)CC[C@@H]1C` , what is its reported solubility kinetic? 252 µM

Given the molecule `CCCCCOc1cc(N2CCCN(Cc3ccc(CNC(=O)c4cccnn4)cc3OC)C2=O)ccc1OC` , what is its reported solubility kinetic? 60 µM

---

- TARGET_ENTITY: Human C5 (Homo sapiens)
- Construct: purchased Complement Technology
- Sequence (P01031 19-1676): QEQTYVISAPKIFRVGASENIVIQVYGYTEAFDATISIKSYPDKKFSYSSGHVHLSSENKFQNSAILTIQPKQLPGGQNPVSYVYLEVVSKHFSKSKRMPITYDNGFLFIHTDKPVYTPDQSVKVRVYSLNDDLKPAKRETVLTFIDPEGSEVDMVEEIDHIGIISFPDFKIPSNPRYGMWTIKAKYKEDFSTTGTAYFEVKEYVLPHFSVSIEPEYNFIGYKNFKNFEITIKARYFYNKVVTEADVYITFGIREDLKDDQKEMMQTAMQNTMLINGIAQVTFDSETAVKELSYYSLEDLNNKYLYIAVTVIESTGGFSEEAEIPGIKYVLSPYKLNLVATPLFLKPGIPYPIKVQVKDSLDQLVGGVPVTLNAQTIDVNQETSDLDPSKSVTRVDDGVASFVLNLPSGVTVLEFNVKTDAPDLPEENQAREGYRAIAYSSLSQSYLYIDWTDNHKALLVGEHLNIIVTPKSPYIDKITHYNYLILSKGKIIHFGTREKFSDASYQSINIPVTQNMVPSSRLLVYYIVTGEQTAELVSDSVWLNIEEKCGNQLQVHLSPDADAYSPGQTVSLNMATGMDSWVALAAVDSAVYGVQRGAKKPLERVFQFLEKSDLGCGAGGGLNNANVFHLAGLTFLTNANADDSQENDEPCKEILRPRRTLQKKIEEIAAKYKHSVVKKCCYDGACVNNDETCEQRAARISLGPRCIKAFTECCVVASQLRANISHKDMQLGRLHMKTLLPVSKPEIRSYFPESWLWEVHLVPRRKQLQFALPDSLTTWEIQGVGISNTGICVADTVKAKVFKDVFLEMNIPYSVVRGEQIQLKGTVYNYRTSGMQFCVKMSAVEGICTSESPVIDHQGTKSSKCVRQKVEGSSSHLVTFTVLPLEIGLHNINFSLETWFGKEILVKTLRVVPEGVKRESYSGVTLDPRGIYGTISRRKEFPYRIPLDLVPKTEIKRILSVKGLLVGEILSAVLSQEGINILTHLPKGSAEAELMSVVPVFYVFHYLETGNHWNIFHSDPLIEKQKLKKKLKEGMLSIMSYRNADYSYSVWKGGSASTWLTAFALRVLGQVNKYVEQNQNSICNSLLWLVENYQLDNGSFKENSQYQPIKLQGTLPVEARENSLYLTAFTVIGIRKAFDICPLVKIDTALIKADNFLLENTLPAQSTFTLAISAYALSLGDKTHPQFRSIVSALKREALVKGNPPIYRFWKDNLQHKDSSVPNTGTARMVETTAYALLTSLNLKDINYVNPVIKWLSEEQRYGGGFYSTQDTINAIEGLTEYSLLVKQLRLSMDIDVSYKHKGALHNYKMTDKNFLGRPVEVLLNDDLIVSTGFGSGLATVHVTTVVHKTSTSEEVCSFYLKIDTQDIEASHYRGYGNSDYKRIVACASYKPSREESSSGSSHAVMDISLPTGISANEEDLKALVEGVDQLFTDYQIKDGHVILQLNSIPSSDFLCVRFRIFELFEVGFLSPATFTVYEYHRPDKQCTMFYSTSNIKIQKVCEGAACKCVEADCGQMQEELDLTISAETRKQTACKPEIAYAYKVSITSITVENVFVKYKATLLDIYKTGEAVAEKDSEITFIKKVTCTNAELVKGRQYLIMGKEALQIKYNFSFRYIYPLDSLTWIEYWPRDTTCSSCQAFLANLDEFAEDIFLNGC
- PROTOCOL: Red blood cell (RBC) hemolysis assay, luminescent (Example 13, Table 22); note: 1.5% C5-depleted human serum
- Type: cell-based
- CONDITION_SET: sheep EA cells, […] C5-depleted human serum, 0.5 nM human C5, 1 hour 37° C., luminescence
REPORTED_ENDPOINT: IC50 (nM)
Express your answer in nM, writing the number without its unit.

Please review the entries below; each comes with its answer.
COMPOUND: COc1cccc(COc2cc(N3CCCN(Cc4cc(F)ccc4OC)C3=O)ccc2OC)c1 [CU0227]
REPORTED_ENDPOINT: IC50
MEASUREMENT_UNIT: nM
MEASURED_VALUE: 362
//
COMPOUND: CCCCCOc1cc(N2CCCN(Cc3cccc4c3ccn4CC(=O)N3CCN=C(N(C)C)C3)C2=O)ccc1OC [CU0239]
REPORTED_ENDPOINT: IC50
MEASUREMENT_UNIT: nM
MEASURED_VALUE: 11.2
//
COMPOUND: COc1ccc(F)cc1CN1CCCN(c2ccc(OC)c(OCCCc3ccccc3)c2)C1=O [CU0183]
REPORTED_ENDPOINT: IC50
MEASUREMENT_UNIT: nM
MEASURED_VALUE: 238
//
COMPOUND: CCCCCOc1cc(N2CCCN(Cc3cccc4c3ccn4CC(=O)N3CCCC3)C2=O)ccc1OC [CU0235]
REPORTED_ENDPOINT: IC50
MEASUREMENT_UNIT: nM
MEASURED_VALUE: 29.4
//
COMPOUND: CCC(F)(F)CCOc1cc(N2CCCN(Cc3ccccc3OC)C2=O)ccc1OC [CU0176]
REPORTED_ENDPOINT: IC50
MEASUREMENT_UNIT: nM
MEASURED_VALUE: 111
//
COMPOUND: CCCCCOc1cc(N2CCCN(Cc3cccc4c3ncn4CC(=O)N3CCN(C(C)=O)CC3)C2=O)ccc1OC [CU0063]
REPORTED_ENDPOINT: IC50
MEASUREMENT_UNIT: nM
MEASURED_VALUE: 28.3

Given the compound CCCCCOc1cc(N2CCCN(Cc3cc(F)ccc3Cl)C2=O)ccc1OC [CU0014] , what is its reported IC50? 77.6

Given the compound COc1ccc(F)cc1CN1CCCN(c2ccc(OC)c(OCc3cccc(OC(F)(F)F)c3)c2)C1=O [CU0221] , what is its reported IC50? 741
